B1: Caulobacter ParB omega fusion; a variant is named by its letters at X, in order, B8GW30 (parent)
chain: MESVVVGEPGMSEGRRGLGRGLSALLGEVDAAPAQAPGEQLGGSREAPIEILQRNPDQPRRTFREEDLEDLSNSIREKGVLQPILVRPSPDTAGEYQIVAGERAWRAAQRAGLKTVPIMVRELDDLAVLEIGIIENVQRADLNVLEEALSYKVLMEKFERTQENIAQTIGKSXSHVANXMRLLXLPDEVQSYLVSGELTAXHARAIAAAADPVALAKQIIEGGLSVRETEALARKAPNLSAGKSKGGRPPRVKDTDTQALESDLSSVLGLDVSIDHRGSTGTLTITYATLEQLDDLCNRLTRGI

Variants of: B1
Assay: one-hybrid fitness for binding NBS DNA (the Noc-binding site; scaled: cognate 1, non-cognate 0); higher = stronger binding
Conditions: with NBS DNA site
Over roughly 81,000 sequences, “one-hybrid fitness for binding NBS DNA” has its median near -0.1; the highest 2% begin near 0.36. The full list was thinned out, with the highest values kept by preference.
Catalogue of one-hybrid fitness for binding NBS DNA values

# annotated cases, reported one-hybrid fitness for binding NBS DNA shown
- mut: "RIRP"
  one-hybrid fitness for binding NBS DNA: "≤ 0.2"
- mut: "PTRL"
  one-hybrid fitness for binding NBS DNA: "≤ 0.2"
- mut: "GGII"
  one-hybrid fitness for binding NBS DNA: "≤ 0.2"
- mut: "RCMT"
  one-hybrid fitness for binding NBS DNA: 0.492
- mut: "RRKI"
  one-hybrid fitness for binding NBS DNA: 0.607
- mut: "VACG"
  one-hybrid fitness for binding NBS DNA: "≤ 0.2"

Could you tell me which one-hybrid fitness for binding NBS DNA is on file for AGNM ?
≤ 0.2

Same for ARIK
≤ 0.2

Try this variant next: FMCG
≤ 0.2

Same question for TPDF please.
≤ 0.2

Where do these numbers come from? They come from a collection of fitness landscapes (doi:10.1016/j.celrep.2020.107928).
